Origin of measurements: patent US11446298B2

# tested.target: EP4 (Homo sapiens, UniProt P35408)
# Construct: BT549 breast cancer cells, express high endogenous EP4 levels and very low EP2 levels
# Sequence (P35408 whole entry): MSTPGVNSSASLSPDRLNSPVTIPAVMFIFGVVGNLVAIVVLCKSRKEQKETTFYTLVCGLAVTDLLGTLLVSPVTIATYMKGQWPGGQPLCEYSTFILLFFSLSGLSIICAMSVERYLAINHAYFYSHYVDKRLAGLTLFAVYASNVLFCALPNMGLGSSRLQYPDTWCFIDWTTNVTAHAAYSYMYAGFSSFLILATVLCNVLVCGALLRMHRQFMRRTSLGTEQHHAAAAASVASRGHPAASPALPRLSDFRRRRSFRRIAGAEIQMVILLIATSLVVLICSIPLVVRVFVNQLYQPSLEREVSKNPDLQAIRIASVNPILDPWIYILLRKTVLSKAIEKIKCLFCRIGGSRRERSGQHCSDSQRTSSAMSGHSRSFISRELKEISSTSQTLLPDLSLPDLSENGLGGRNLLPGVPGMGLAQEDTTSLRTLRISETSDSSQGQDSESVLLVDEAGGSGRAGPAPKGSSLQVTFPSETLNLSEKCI
# method.summary: hEP4 cAMP Assay (BT549 breast cancer cells, HTRF cAMP, PGE2 6 nM)
# assay.context: antagonistic activity, PGE2 6 nM (EC80)
measured.metric: IC50 (nM)

Known results for molecules:
>>> number("O=C(O)c1ccc(-c2cc(NCCc3cccc4cccnc34)ncn2)cc1OC1CCC1")
613
>>> number("O=C(O)c1ccc(-c2cc(NCCc3ccc(Cl)c4ccccc34)ncn2)cc1OC1CCC1")
745
>>> number("COc1ccc2ncccc2c1CCNc1cc(-c2ccc(-c3c(O)c(=O)c3=O)cc2)ncn1")
818

a = CCOc1cc(-c2cc(NCCc3c(Cl)ccc4cccnc34)ncn2)sc1C(=O)O
b = CCOc1cc(-c2cc(NCCc3cccc4ccsc34)ncn2)ccc1CC(=O)O
c = COc1ccc(CCNc2cc(-c3ccc(C(=O)O)c(OC4CCC4)c3)ncn2)c2ccccc12
# input # desc sort on IC50 across 3 molecules Reply with the labels, ordered as the question asks.
# output b, c, a

====

# tested.target: UniProt P43116
# method.summary: hEP2 b-Arrestin Assay (PathHunter HEK 293 PTGER2 b-arrestin cells, PGE2 5 μM)
# assay.context: antagonistic activity, beta-arrestin assay, HEK 293 PTGER2 cells, PGE2 5 μM (EC80); read-out: hEP2 b-arr IC50
pIC50: −log10 of the molar value.
measured.metric: pIC50

Recorded results for 5 molecules are shown here.
>>> number("COc1ccc2ncccc2c1CCNc1cc(-c2ccc(-c3cc(O)no3)cc2)ncn1 [Example 83]")
6.92
>>> number("CCOc1cc(-c2cc(NCCc3cccc4ccccc34)ncn2)sc1C(=O)O [Example 9]")
7.96
>>> number("CCOc1cc(-c2cc(NCCc3ccc(C#N)c4ccccc34)ncn2)sc1C(=O)O [Example 69]")
7.11
>>> number("COc1ccc2ccccc2c1CCNc1cc(-c2ccc(C(=O)O)c(OC(F)F)c2)ncn1 [Example 128]")
8.00
>>> number("CCOc1cc(-c2cc(NCCc3c(F)ccc4ccccc34)ncn2)ccc1C(=O)O [Example 93]")
7.44

a = CCOc1cc(-c2cc(NCCc3ccc(Cl)c4ccccc34)ncn2)sc1C(=O)O [Example 62]
b = COc1ccc2c(C)ccnc2c1CCNc1cc(-c2ccc(C(=O)O)c(OC3CCC3)c2)ncn1 [Example 87]
# input In the pair a and b , the larger recorded pIC50 belongs to which? // return label of chosen record
# output a
(a: 7.49, b: 7.15)

====

# tested.target: EP2 (Homo sapiens, UniProt P43116)
# Construct: SF295 glioblastoma cells express high endogenous EP2 and no EP4
# Sequence (P43116 whole entry): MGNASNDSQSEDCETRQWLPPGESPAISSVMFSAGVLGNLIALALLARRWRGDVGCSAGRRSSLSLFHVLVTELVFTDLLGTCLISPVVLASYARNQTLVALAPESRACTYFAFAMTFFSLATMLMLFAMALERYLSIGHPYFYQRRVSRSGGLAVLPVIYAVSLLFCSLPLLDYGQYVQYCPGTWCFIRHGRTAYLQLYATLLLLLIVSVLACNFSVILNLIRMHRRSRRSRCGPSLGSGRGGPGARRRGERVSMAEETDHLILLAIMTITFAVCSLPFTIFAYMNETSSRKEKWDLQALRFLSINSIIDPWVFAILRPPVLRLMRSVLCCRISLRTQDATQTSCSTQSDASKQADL
# method.summary: hEP2 cAMP Assay (SF295 glioblastoma cells, HTRF cAMP, PGE2 75 nM)
# assay.context: antagonistic activity, PGE2 75 nM (EC80)
pIC50: −log10 of the molar value.
measured.metric: pIC50

// solved cases for pIC50 follow
>>> number("CCOc1cc(-c2cc(NCCc3cccc4ccccc34)ncn2)ccc1C(=O)O")
7.02
>>> number("CCOc1cc(-c2cc(NCCc3cccc4[nH]ccc34)ncn2)sc1C(=O)O")
7.30
>>> number("CCOc1cc(-c2cc(NCCc3cccc4cccnc34)ncn2)sc1C(=O)O")
6.61
>>> number("COc1ccc2ncccc2c1CCNc1cc(-c2ccc(-c3cc(O)no3)cc2)ncn1")
7.05
>>> number("CCOc1cc(-c2cc(NCCc3cccc4ccoc34)ncn2)sc1C(=O)O")
7.12

P = CCOc1cc(-c2cc(NCCc3c(OC)ccc4cccnc34)ncn2)sc1C(=O)O
Q = CCOc1cc(-c2cc(NCCc3cccc4sccc34)ncn2)ccc1C(=O)O
R = CCOc1cc(-c2cc(NCCc3cccc4sccc34)ncn2)ccc1CC(=O)O
S = CSc1cc(-c2cc(NCCc3cccc4c(C)cccc34)ncn2)ccc1C(=O)O
T = COc1ccc2ccccc2c1CCNc1cc(-c2ccc(C(=O)O)c(OC(F)F)c2)ncn1
# input Which order do these items take when sorted by rising pIC50? List them. Form field (ranking): labels in requested order.
# output R, Q, P, S, T
(R: 6.06, Q: 6.59, P: 7.11, S: 7.82, T: 8.52)

====

# tested.target: EP4 (Homo sapiens, UniProt P35408)
# Construct: BT549 breast cancer cells, express high endogenous EP4 levels and very low EP2 levels
# method.summary: hEP4 cAMP Assay (BT549 breast cancer cells, HTRF cAMP, PGE2 6 nM)
# assay.context: antagonistic activity, PGE2 6 nM (EC80)
measured.metric: IC50 (nM)

Example entries begin here.
>>> number("CCOc1cc(-c2cc(NCCc3c(OC)ccc4ncccc34)ncn2)sc1-c1nnn[nH]1")
53
>>> number("CCOc1cc(-c2cc(NCCc3c(OC)ccc4c(OC)cccc34)ncn2)ccc1C(=O)O")
420

I = CCCc1cc(-c2cc(NCCc3c(OC)ccc4ccccc34)ncn2)cc(F)c1C(=O)O
II = CCOc1cc(-c2cc(NCCc3c(OC)c(OC)cc4ccccc34)ncn2)sc1C(=O)O
# input Kindly identify the item with the lower IC50 figure among these two: I and II Indicate your choice by writing its label.
# output II
(II: 24 nM, I: 550 nM)

====

# tested.target: EP2 (Homo sapiens)
# Construct: SF295 glioblastoma cells express high endogenous EP2 and no EP4
# method.summary: hEP2 cAMP Assay (SF295 glioblastoma cells, HTRF cAMP, PGE2 75 nM)
# assay.context: antagonistic activity, PGE2 75 nM (EC80)
pIC50: −log10 of the molar value.
measured.metric: pIC50

Some compounds with known pIC50 results, for comparison:
>>> number("COc1ccc2ccccc2c1CCNc1cc(-c2ccc(-c3cc(O)no3)cc2)ncn1")
7.04
>>> number("CCOc1cc(-c2cc(NCCc3cccc4ccncc34)ncn2)sc1-c1noc(=O)[nH]1")
6.28
>>> number("CCSc1cc(-c2cc(NCCc3ccc(C)c4ccccc34)ncn2)ccc1C(=O)O")
6.69
>>> number("CCOc1cc(-c2cc(NCCc3c(C)c(C)cc4ccccc34)ncn2)ccc1C(=O)O")
6.58

a = Cc1ccc2c(cnn2C)c1CCNc1cc(-c2ccc(-c3c(O)c(=O)c3=O)cc2)ncn1
b = CCOc1cc(-c2cc(NCCc3c(C)ccc4c3cnn4C)ncn2)sc1C(=O)O
# input Hi, I'm comparing a with b and wondering which one has the bigger number for pIC50. Any idea? Give the label of your selection.
# output b
(b: 7.60, a: 6.54)

A = CCOc1cc(-c2cc(NCCc3c(OC)ccc4ccccc34)ncn2)sc1C(=O)NS(N)(=O)=O
B = CCOc1cc(-c2cc(NCCc3c(OC)ccc4ccccc34)ncn2)ccc1C(=O)O
# input Between A and B , whose recorded pIC50 is greater? Answer by quoting the chosen item's label.
# output A
(A: 8.52, B: 7.96)

====

# tested.target: EP2 (Homo sapiens, UniProt P43116)
# Construct: SF295 glioblastoma cells express high endogenous EP2 and no EP4
# method.summary: hEP2 cAMP Assay (SF295 glioblastoma cells, HTRF cAMP, PGE2 75 nM)
# assay.context: antagonistic activity, PGE2 75 nM (EC80)
measured.metric: IC50 (µM)

Solved entries (count: 5):
>>> number("COc1ccc2c(c1CCNc1cc(-c3cc(C(F)(F)F)c(C(=O)O)s3)ncn1)CCCN2C")
0.144
>>> number("O=C(O)c1ccc(-c2cc(NCCc3cccc4ccccc34)ncn2)cc1OC1CCC1")
0.133
>>> number("CCOc1cc(-c2cc(NCCc3c(F)ccc4ccccc34)ncn2)ccc1OCC(=O)O")
0.18
>>> number("Cc1ccc2c(cnn2C)c1CCNc1cc(-c2ccc3ncccc3c2)ncn1")
0.035
>>> number("CCOc1cc(-c2cc(NCCc3cccc4ccsc34)ncn2)ccc1OCC(=O)O")
0.335

A = CCOc1cc(-c2cc(NCCc3c(C)ccc4ccccc34)ncn2)ccc1OCC(=O)O
B = COc1ccc2ccc(F)c(CCNc3cc(-c4cc(C(F)(F)F)c(C(=O)O)s4)ncn3)c2n1
# input Which entry shows the lesser value of IC50 here, A or B ? Lab note: record the label of whichever item you select.
# output A

A = CCOc1cc(-c2cc(NCCc3cccc4cccnc34)ncn2)sc1-c1noc(=O)[nH]1
B = CCOc1cc(-c2cc(NCCc3c(OC)ccc4ccccc34)ncn2)ccc1-c1noc(=O)[nH]1
# input Lab note: check whether A or B has the lower measured IC50. Answer with the label corresponding to your selection.
# output B
(B: 0.02 µM, A: 0.142 µM)

1 = O=C(O)c1ccc(-c2cc(NCCc3ccc(Cl)c4ccccc34)ncn2)cc1OC1CCC1
2 = Cc1ccc(CCNc2cc(-c3ccc(C(=O)O)c(OC4CCC4)c3)ncn2)c2ccccc12
3 = CCOc1cc(-c2cc(NCCc3c(Cl)ccc4cccnc34)ncn2)sc1C(=O)O
4 = CCCCOc1cc(-c2cc(NCCc3c(OC)ccc4ccccc34)ncn2)cc(F)c1C(=O)O
# input Would you mind ranking these compounds by ascending IC50? Reply with the item labels sorted in the order that was asked for.
# output 3, 4, 1, 2
(3: 0.025 µM, 4: 0.1 µM, 1: 0.183 µM, 2: 0.281 µM)

a = CCOc1cc(-c2cc(NCCc3c(OC(C)C)ccc4ccccc34)ncn2)sc1C(=O)O
b = Cn1ccc2c(CCNc3cc(-c4ccc(C(=O)O)c(OC5CCC5)c4)ncn3)cccc21
# input Compare the recorded IC50 of a and b ; state which is larger. API: response body contains the label of the selected item.
# output b

P = COc1ccc2ncccc2c1CCNc1cc(-c2cc(C(F)(F)F)c(C(=O)O)s2)ncn1
Q = COc1ccc(CCNc2cc(-c3ccc(C(=O)O)c(OC4CCC4)c3)ncn2)c2ccccc12
# input Which is greater in IC50, the first item P or the second item Q ? Could you answer with the label of the item you picked?
# output Q
(Q: 0.825 µM, P: 0.03 µM)
